Kindly supply the reported Phage binding ELISA, Anti-PSMA Fab signal values for the records listed here.
# ASSAY_TARGET: T1, Anti-PSMA Fab (SEQ ID NOs: 19, 20)
# T1 construct: Biotinylated and captured on neutravidin coated plates in the phage ELISA; also called 006 PSMA Fab
# PROTOCOL_DETAILS: phage ELISA; biotinylated PSMA Fab on neutravidin plate, clonal phage supernatant, anti-M13-HRP detection;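 also: wells were preincubated with blocking buffer containing PSMA antigen or with blocking buffer only, then phage supernatant was added without washing for a brief incubation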
Where no end group is shown, it is not given here.

Recorded results for 5 binders are shown here.
INSERT INTO assay_data (binder, value_reported) VALUES
  ('VVKMCRPAWMCDLV (tested as crude phage supernatant) [Phage-1984]', 1.88),
  ('EPKLCTPTWMCIGF (tested as crude phage supernatant) [Phage-1989]', 1.87),
  ('LDNWCRPLWMCTGF (tested as crude phage supernatant) [Phage-1988]', 1.87),
  ('VGMLCKPSWMCDWL (tested as crude phage supernatant) [Phage-1982]', 1.88),
  ('YEKWCTPPWMCEML (tested as crude phage supernatant) [Phage-1986]', 1.88);

List reported Phage binding ELISA, Anti-PSMA Fab signal for each of these binders:
1. FDKWCIPTWMCELV (tested as crude phage supernatant) [Phage-1994]
2. LVKWCTPSWMCINL (tested as crude phage supernatant) [Phage-1991]
3. PPILCIPQWMCSPT (cysteine pairing not given here; also: displayed as fusion to phage pIII) [Phage-1981]
4. PVKWCIPDWMCAYL (cysteine pairing not given here; also: displayed as fusion to phage pIII, tested as crude phage supernatant) [Phage-1992]

Result:
1: 1.86; 2: 1.87; 3: 1.88; 4: 1.86

All figures here come from patent US20260242478A1.
